# EXPERIMENT: Metabolic stability in rat hepatocyte assessed as unbound intrinsic clearance at 1 uM incubated for 180 mins by LC-MS/MS analysis
# Type: ADME, cell-based
# CONDITION: hepatocytes, 3 h
EXPERIMENTAL READOUT: CL free (mL/min/kg)

I: CN(C)S(=O)(=O)NC(=O)c1cc(N2CCC(N3CCOCC3)CC2)c2c(C3CCC3)nn(-c3ccc(F)cc3)c2n1
II: COc1ccc(-c2cc(C(=O)O)nc3c2c(C)nn3-c2ccccc2)cc1
Identify the entry with the smaller CL free: I or II . Answer with the label corresponding to your selection.
I
(I: 49 mL/min/kg, II: 305 mL/min/kg)

* * *

# SYSTEM TESTED: Cytochrome P450 3A4 (Homo sapiens)
# Sequence (P08684 whole entry): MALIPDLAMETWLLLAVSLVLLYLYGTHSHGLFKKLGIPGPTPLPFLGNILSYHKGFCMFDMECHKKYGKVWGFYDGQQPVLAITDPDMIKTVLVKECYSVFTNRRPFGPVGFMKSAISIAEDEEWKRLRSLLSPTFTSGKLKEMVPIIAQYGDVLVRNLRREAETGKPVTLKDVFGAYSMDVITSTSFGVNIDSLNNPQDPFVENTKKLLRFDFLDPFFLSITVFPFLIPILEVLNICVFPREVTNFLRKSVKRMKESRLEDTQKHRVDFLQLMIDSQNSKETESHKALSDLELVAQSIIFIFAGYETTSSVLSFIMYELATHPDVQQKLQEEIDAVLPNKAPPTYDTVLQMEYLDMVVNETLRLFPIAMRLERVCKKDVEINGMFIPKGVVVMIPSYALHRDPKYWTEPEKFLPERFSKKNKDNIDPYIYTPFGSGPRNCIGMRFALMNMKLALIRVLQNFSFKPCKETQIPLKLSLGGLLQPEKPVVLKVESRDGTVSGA
# EXPERIMENT: Inhibition of CYP3A4 in human liver microsomes using testosterone as substrate in presence of NADPH by LC/MS/MS analysis
# Type: ADME, Microsome
pIC50: −log10 of the molar value.
EXPERIMENTAL READOUT: pIC50

Dear colleague, please send me the reported pIC50 for COC1CCN(c2cc(C(=O)NS(=O)(=O)N(C)C)nc3c2c(C2CCC2)nn3-c2ccc(F)cc2)CC1 when you can.
< 4.00

* * *

# EXPERIMENT: Plasma clearance in Beagle dog iv measured upto 24 hrs by LC-MS/MS analysis
EXPERIMENTAL READOUT: clearance (mL/min/kg)
Report as a plain number; the unit mL/min/kg is understood.

Dear colleague, please send me the reported clearance for COC1CCN(c2cc(C(=O)NS(=O)(=O)N(C)C)nc3c2c(C2CCC2)nn3-c2ccc(F)cc2)CC1 when you can.
3.5

* * *

# EXPERIMENT: Apparent permeability from apical to basolateral side in MDCKII-MDR1 cells at 10 uM measured after 1 hr by LC-MS/MS analysis
# Type: ADME, cell-based, Canis lupus familiaris
# CONDITION: dog, MDCK-MDR1
EXPERIMENTAL READOUT: Papp A→B at 1 h, 10 µM (×10⁻⁶ cm/s)
Report as a plain number; the unit ×10⁻⁶ cm/s is understood.

Dear colleague, please send me the reported Papp A→B at 1 h, 10 µM for COC1CCN(c2cc(C(=O)NS(=O)(=O)N(C)C)nc3c2c(C2CCC2)nn3-c2ccc(F)cc2)CC1 when you can.
5.45

* * *

# EXPERIMENT: Thermodynamic solubility of the compound at pH 7.4 measured after 24 hrs by LC-MS/MS analysis
# Format: physicochemical
# CONDITION: buffer, read-out: Therm_solubility
EXPERIMENTAL READOUT: solubility thermodynamic at 24 h (µg/mL)
Report as a plain number; the unit µg/mL is understood.

Dear colleague, please send me the reported solubility thermodynamic at 24 h for COC1CCN(c2cc(C(=O)NS(=O)(=O)N(C)C)nc3c2c(C2CCC2)nn3-c2ccc(F)cc2)CC1 when you can.
9.9

* * *

# EXPERIMENT: Metabolic stability in rat hepatocyte assessed as unbound intrinsic clearance at 1 uM incubated for 180 mins by LC-MS/MS analysis
# Format: ADME, cell-based
# CONDITION: hepatocytes, 3 h
EXPERIMENTAL READOUT: CL free (mL/min/kg)

1) COC1CCN(c2cc(C(=O)NS(=O)(=O)N(C)C)nc3c2c(C2CCC2)nn3-c2ccc(F)cc2)CC1 = 66.2

1: Cc1nn(-c2ccccc2)c2nc(C(=O)O)cc(-c3ccc(N4CCOCC4)cc3)c12
2: COc1ccc(-c2cc(C(=O)O)nc3c2c(C)nn3-c2ccc(C)cc2)cc1
Identify the entry with the smaller CL free: 1 or 2 . Answer with the label corresponding to your selection.
1
